Quick reference for phosphorylation enrichment among some sequences
MEASUREMENT_TARGET: MERTK (UniProt Q12866)
Sequence (Q12866 whole entry, looked up): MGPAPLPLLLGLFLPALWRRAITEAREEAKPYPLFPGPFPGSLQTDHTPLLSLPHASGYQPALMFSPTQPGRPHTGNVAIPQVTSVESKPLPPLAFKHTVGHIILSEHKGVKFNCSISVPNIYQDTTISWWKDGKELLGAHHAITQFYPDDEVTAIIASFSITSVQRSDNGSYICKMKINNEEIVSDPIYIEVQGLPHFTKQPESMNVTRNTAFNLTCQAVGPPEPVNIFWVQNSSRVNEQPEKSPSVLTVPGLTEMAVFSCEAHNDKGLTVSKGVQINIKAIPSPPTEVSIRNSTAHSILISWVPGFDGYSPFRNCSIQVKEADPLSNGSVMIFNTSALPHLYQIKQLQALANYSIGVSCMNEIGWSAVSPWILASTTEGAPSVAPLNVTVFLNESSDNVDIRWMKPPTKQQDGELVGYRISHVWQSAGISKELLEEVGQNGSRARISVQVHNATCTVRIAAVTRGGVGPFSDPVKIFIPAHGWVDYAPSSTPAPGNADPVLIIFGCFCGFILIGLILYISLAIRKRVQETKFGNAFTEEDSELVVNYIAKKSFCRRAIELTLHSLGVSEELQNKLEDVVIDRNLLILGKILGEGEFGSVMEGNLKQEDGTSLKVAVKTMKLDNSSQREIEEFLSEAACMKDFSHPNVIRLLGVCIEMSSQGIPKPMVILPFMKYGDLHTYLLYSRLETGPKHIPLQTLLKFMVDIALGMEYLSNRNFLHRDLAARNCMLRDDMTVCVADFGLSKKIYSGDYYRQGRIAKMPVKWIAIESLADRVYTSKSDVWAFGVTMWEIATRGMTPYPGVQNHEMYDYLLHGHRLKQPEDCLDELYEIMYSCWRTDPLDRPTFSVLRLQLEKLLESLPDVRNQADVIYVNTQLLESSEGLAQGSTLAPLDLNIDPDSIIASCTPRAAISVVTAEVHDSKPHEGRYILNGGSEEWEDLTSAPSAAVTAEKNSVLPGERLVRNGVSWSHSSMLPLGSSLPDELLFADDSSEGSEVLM
ASSAY_COMMENT: phosphorylation enrichment, bacterial display (enrichment ratio); higher = better substrate or ligand; peptides without Tyr show the background;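 note: 11-residue human phosphosite peptides and single-mutation variants displayed on the E. coli surface, counted by deep sequencing, each peptide's frequency after selection divided by its frequency in the unselected input library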;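 note: frequency after pTyr selection over input frequency; kinase dosed for 20-30% of maximal phosphorylation in three min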
Note: the reply should be a number with no unit written.

These recorded examples may help you get a feel for the data.
Param item = VTGWGYRKLRD [F11_Y521] ; retrieve measured phosphorylation enrichment. 0.51

Param item = ERFAFYRDSPR [FOXE3_Y108] ; retrieve measured phosphorylation enrichment. 0.489

Param item = TRSCKYLLLSM [NF1_Y491_Y489C] ; retrieve measured phosphorylation enrichment. 0.512

New cases:
Param item = DGMADYSDPSF [CDC5L_Y459_YF] ; retrieve measured phosphorylation enrichment. 0.5

Param item = CEDGTYSPEIS [PTDSS1_Y424] ; retrieve measured phosphorylation enrichment. 0.486

Param item = FFRRHYPLTTL [TNS4_Y644] ; retrieve measured phosphorylation enrichment. 0.491

----------
System: c-Src
ASSAY_COMMENT: phosphorylation enrichment, bacterial display (enrichment ratio); higher = better substrate or ligand; peptides without Tyr show the background
Quick reference for phosphorylation enrichment among some sequences
Note: the reply should be a number with no unit written.

Param item = TRYDEYLEVTK [MAP1A_Y2217_H2214Y] ; retrieve measured phosphorylation enrichment. 0.538

Param item = FSCLPYGRLAF [SLC52A2_Y305_YF] ; retrieve measured phosphorylation enrichment. 2.36

Param item = KTNVSYCGALD [CACNB4_Y103] ; retrieve measured phosphorylation enrichment. 0.469

Param item = DGKYSYLKVGH [GRM3_Y480_G475D] ; retrieve measured phosphorylation enrichment. 0.352

For the next question, use this sequence.
Param item = AAGGRYFGLVG [HARS1_Y363_D364Y_YF] ; retrieve measured phosphorylation enrichment. 0.461

----------
System: c-Abl (mouse)
ASSAY_COMMENT: phosphorylation enrichment, bacterial display (enrichment ratio); higher = better substrate or ligand; peptides without Tyr show the background
Quick reference for phosphorylation enrichment among some sequences
Note: the reply should be a number with no unit written.

Param item = HEHVGYTTLNR [CHN1_Y148_Y143H] ; retrieve measured phosphorylation enrichment. 0.936

Param item = DHFNQYEQQKM [CHD7_Y75_YF] ; retrieve measured phosphorylation enrichment. 0.599

Param item = TLNHQYDFTFH [CSNK1A1_Y292_D297H_YF] ; retrieve measured phosphorylation enrichment. 0.735

Param item = ADKAAYLQSLN [MYH2_Y389] ; retrieve measured phosphorylation enrichment. 0.546

Param item = TGEKLYQRKEF [ZNF283_Y627] ; retrieve measured phosphorylation enrichment. 0.507

Param item = FGLTLYPNSRE [MEP1A_Y472_V469L] ; retrieve measured phosphorylation enrichment. 0.629

New cases:
Param item = HRAVEYLLTGI [RAD23A_Y197] ; retrieve measured phosphorylation enrichment. 0.709

Param item = CSPLLYRVIMS [OR8D4_Y132] ; retrieve measured phosphorylation enrichment. 0.851

----------
MEASUREMENT_TARGET: Jak2 (UniProt O60674)
Sequence (O60674 whole entry, looked up): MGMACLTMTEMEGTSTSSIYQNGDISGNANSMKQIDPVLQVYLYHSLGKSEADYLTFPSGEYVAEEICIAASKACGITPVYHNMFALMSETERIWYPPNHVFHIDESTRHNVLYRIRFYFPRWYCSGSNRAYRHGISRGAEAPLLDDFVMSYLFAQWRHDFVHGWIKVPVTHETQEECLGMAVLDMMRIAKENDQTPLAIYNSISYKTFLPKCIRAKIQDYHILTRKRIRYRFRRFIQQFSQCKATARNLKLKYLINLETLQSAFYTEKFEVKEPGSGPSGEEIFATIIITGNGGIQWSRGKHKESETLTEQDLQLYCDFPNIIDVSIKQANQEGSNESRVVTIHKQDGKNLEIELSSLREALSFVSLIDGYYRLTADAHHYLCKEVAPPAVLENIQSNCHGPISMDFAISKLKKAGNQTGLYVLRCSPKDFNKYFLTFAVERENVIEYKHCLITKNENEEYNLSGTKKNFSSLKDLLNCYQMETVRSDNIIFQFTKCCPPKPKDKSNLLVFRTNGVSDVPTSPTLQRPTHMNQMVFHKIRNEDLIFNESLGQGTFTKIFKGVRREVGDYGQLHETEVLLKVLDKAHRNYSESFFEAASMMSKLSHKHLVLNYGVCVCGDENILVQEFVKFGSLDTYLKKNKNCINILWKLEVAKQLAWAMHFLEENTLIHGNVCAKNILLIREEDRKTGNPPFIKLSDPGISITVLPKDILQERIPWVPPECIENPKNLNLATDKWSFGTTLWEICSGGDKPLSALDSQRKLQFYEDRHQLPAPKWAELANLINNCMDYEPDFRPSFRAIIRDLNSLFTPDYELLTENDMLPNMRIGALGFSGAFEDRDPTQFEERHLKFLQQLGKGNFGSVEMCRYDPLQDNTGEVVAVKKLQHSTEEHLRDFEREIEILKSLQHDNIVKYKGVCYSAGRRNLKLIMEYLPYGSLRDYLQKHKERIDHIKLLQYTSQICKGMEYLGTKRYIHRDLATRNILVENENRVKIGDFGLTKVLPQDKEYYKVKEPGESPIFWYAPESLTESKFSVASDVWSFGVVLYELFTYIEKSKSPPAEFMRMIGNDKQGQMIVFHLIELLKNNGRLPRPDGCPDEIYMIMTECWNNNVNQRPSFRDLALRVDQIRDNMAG
ASSAY_COMMENT: phosphorylation enrichment, bacterial display (enrichment ratio); higher = better substrate or ligand; peptides without Tyr show the background
Label satisfied when phosphorylation enrichment >= 0.7; otherwise not satisfied.

Past entries and their recorded results:
hey, is phosphorylation enrichment for this one >= 0.7? DPHQQYYIAMD [TBX15_Y159] satisfied

hey, is phosphorylation enrichment for this one >= 0.7? LPEENYQVLCF [ARHGAP1_Y365_R369C] satisfied

hey, is phosphorylation enrichment for this one >= 0.7? ELELLYPDRNS [NYX_Y284_L285P] satisfied

hey, is phosphorylation enrichment for this one >= 0.7? DNEALYDICFR [TUBB2B_Y208] satisfied

hey, is phosphorylation enrichment for this one >= 0.7? LTNDRYLATLT [IL6ST_Y396] satisfied

hey, is phosphorylation enrichment for this one >= 0.7? VTQEPYELYCE [CBL_Y368_Q367P] satisfied

hey, is phosphorylation enrichment for this one >= 0.7? ELANYYKLHHI [AK7_Y391] satisfied

hey, is phosphorylation enrichment for this one >= 0.7? KAESWYQTKFE [KRT75_Y342_E337K_YF] satisfied

Alright, here's another sequence for you.
hey, is phosphorylation enrichment for this one >= 0.7? SGRSGYCLGTR [SCO1_Y60_P58S] not satisfied

Values from the supplement of paper PMC10065799
